Every entry's value here was drawn from patent US20190202925A1.

Each item that follows carries a reported pKd.
Biological target: T1, monomeric human TNFR2 extracellular domain (human, UniProt P20333 23-257)
T1 construct: extracellular domain; Analyte in the Octet experiments; also called human TNFR2 ECD
T1 sequence (looked up): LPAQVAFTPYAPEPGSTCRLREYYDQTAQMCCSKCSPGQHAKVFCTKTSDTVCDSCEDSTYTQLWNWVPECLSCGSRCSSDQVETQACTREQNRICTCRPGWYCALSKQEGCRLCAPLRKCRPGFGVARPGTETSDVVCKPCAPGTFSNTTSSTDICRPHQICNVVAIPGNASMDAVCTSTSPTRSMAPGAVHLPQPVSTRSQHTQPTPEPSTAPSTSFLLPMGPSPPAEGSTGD
Assay: BLI (Octet Red 96), Human TNFR2 Kd (1-1)
pKd: −log10 of the molar value.
READOUT_KIND: pKd

- BINDER: "chimeric SBT-002 Fc null (antibody, V domains shown, also called chSBT-002n) VH: QVTLKESGPGILQPSQTLSLTCSFSGFSLSTSGMGVGWIRQPSGKGLEWLAHIWWDDDKFYNPSLKSQLTISKDTSRNQVFLKLTSVVTADTATYYCARLTGTRYFDYWGQGTTLTVSS VL: DVQMTQSPSSLSASLGGKVTITCKASQDINKFIAWYQHKPGKGPRLLIHYTSTLQPGIPSKFSGSGSGRDYSFSISNLEPEDIATYYCLQYGNLWTFGGGTKLEIT"
  REPORTED: 8.60
- BINDER: "SBT-004 (antibody, V domains shown, Parental rat antibody; also called rat SBT-004) VH: EVQLQQSGPEVGRPGSSVKISCKASGYTFTDYIMHWVKQSPGQGLEWIGWVDPEYGSTDYAEKFKKKATLTADTSSNTAYIQLSSLTSEDTATYFCARDDGSYSPFDYWGQGVMVTVSS VL: DIQMTQSPPSLSASLGDKVTITCQASQNINKYIAWYQQKPGKAPRLLIRYTSTLESGTPSRFSGSGSGRDYSFSISNVESEDIASYYCLQYVNLLTFGAGTKLEIK"
  REPORTED: 8.96
